Provenance of the data: patent EP1712550A2

Target: HER2 (human epidermal growth factor receptor-2) (Homo sapiens, UniProt P04626)
Construct: begins at amino acid 676 followed by the remainder of the HER2 cytoplasmic domain; polyhistidine (N)
Sequence (P04626 676-1255 limits assumed): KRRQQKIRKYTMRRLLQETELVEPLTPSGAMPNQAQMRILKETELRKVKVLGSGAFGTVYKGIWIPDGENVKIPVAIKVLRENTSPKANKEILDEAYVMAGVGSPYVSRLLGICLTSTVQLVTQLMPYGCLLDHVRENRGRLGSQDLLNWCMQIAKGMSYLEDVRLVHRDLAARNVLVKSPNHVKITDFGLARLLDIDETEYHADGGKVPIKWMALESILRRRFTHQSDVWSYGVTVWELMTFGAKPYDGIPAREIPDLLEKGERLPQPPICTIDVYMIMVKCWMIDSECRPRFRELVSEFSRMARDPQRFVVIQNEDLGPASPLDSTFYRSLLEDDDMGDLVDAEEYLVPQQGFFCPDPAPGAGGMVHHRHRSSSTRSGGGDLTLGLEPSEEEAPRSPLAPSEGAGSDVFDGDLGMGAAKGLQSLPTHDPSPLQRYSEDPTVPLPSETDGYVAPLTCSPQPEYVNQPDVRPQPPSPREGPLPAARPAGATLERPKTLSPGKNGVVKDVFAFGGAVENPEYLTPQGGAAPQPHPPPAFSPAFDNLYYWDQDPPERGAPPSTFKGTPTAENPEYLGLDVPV
Assay: Kinase Selectivity Assay HER2
Type: biochemical
Settings: read-out: Kinase Assay (IC50 uM) HER2 Kinase
MEASURE_NAME: log10(IC50) (log10 of the value in µM)

COMPOUND | log10(IC50)
CNS(=O)(=O)c1ccc(Nc2nc(N)n(C(=O)c3sccc3C)n2)cc1 [Cpd 82] | -0.93
Cc1ccc(F)c(C(=O)n2nc(Nc3ccc(S(=O)(=O)NCCN(C)C)cc3)nc2N)c1F [Cpd 105] | -0.07
Cc1cc(C)c(C(=O)n2nc(Nc3ccc(S(=O)(=O)NCCN(C)C)cc3)nc2N)s1 [Cpd 107] | -1.52
Nc1nc(Nc2ccc(N3CCCS3(=O)=O)cc2)nn1C(=O)c1c(F)cccc1F [Cpd 117] | 0.74
CNS(=O)(=O)c1ccc(Nc2nc(N)n(C(=O)c3c(F)ccc(C)c3F)n2)cc1 [Cpd 81] | 0.23

###

Target: CDK2 in complex with cyclin A (Homo sapiens, UniProt P24941)
Construct: purchased Upstate Biotech, Lake Placid, NY
Assay: Kinase Selectivity Assay CDK2
Type: biochemical
// reported IC50 for each item listed

MOLECULE | TARGET_ENTITY | IC50
Nc1nc(Nc2cccc(Cl)c2)n(C(=O)c2c(F)cccc2F)n1 [Cpd 126] | CDK2 in complex with cyclin A (Homo sapiens, UniProt P24941) | > 100 µM
Nc1nc(Nc2cccc(Cl)c2)n(C(=O)c2ccccc2)n1 [Cpd 127] | CDK2 in complex with cyclin A (Homo sapiens, UniProt P24941) | > 100 µM

###

Molecular target: VEGF-R (vascular endothelial growth factor receptor-2) (Rattus norvegicus)
Construct: 6xHis (polyhistidine) (N)
Sequence (O08775 786-1343): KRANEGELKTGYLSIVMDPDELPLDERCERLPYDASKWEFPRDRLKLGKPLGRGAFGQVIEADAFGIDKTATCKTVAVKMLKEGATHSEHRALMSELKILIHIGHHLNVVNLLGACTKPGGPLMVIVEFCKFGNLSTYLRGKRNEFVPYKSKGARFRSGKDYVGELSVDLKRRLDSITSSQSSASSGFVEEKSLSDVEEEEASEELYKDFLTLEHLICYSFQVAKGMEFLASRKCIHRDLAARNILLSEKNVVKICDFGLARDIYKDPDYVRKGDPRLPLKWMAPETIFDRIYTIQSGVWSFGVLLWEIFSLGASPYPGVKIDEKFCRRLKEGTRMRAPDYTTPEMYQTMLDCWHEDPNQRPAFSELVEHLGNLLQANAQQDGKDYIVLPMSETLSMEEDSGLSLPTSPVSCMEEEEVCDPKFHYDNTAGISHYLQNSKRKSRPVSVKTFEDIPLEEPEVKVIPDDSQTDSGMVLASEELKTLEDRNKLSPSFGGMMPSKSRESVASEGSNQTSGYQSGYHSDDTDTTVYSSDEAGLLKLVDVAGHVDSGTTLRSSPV
Test: VEGF-R Screening Assay
Type: biochemical
Details: read-out: Kinase Assay (IC50 uM) VEGF-R
Lab note: anything with IC50 below 0.02 µM is marked Criterion met; values at 0.02 µM or higher are marked Criterion not met.

COMPOUND | LABEL_VALUE
CNS(=O)(=O)c1ccc(Nc2nc(N)n(C(=O)c3sccc3C)n2)cc1 [Cpd 82] | Criterion not met
Nc1nc(Nc2ccc(S(N)(=O)=O)cc2)nn1C(=O)C1CCCCC1 [Cpd 39] | Criterion not met
CCc1ccc(C(=O)n2nc(Nc3ccc(NS(C)(=O)=O)cc3)nc2N)s1 [Cpd 110] | Criterion met
CNS(=O)(=O)c1ccc(Nc2nc(N)n(C(=O)c3c(F)ccc(C)c3F)n2)cc1 [Cpd 81] | Criterion not met
CNS(=O)(=O)c1ccc(Nc2nc(N)n(C(=O)c3sc(C)cc3C)n2)cc1 [Cpd 83] | Criterion not met
